# Tested on: rat mGlu5 (Rattus norvegicus (Rat), UniProt P31424)
# Sequence (P31424 21-1203): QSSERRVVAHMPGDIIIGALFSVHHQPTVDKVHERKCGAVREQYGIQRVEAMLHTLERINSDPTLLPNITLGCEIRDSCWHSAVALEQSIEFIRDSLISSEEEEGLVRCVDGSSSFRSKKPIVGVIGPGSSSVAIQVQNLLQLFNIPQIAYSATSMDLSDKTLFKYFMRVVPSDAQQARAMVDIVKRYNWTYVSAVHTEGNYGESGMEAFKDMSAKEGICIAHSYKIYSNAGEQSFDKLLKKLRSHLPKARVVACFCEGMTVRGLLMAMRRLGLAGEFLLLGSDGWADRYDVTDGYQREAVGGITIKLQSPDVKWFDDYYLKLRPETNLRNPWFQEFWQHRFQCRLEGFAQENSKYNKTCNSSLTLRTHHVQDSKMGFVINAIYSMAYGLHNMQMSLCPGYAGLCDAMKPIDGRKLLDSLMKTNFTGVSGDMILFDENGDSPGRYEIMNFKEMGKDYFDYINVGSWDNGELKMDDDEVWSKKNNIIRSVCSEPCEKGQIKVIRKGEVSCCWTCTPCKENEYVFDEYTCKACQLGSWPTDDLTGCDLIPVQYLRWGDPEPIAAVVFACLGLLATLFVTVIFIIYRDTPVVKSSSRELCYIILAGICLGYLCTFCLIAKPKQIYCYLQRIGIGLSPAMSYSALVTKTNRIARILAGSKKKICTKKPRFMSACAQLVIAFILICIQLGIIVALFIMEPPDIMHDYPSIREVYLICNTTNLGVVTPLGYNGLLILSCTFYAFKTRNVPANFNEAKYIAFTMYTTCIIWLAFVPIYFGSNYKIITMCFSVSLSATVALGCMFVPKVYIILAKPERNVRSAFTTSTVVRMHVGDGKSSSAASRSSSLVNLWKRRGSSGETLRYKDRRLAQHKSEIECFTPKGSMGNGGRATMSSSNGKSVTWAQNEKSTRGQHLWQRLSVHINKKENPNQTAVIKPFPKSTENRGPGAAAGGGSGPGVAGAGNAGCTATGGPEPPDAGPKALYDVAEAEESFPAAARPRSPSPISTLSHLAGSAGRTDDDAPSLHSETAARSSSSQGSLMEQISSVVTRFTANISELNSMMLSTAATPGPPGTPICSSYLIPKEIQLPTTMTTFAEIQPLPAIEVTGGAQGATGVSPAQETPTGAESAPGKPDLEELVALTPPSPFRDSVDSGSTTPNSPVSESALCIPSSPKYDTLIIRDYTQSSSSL
# Test: mGlu5 Ca2+ flux assay
# Type: cell-based
# Test conditions: PAM; amplitude of response at 30 μM test compound as % of maximal response to glutamate; read-out: rat mGlu5 Glu max (%)
Label condition met when Emax at 30 µM is strictly below 80%; at or above that, label condition not met.

Query: Determine whether this compound shows Emax at 30 µM lower than 80% (ties excluded): O=C1c2cc(CNc3cccc(F)c3F)nn2CCN1c1ccc(F)cc1 [Compound 27]
Result: condition not met

Query: Is Emax at 30 µM strictly under 80% for the entry C[C@H]1CN(c2ccc(F)cc2)C(=O)c2cc(CNc3cccc(Cl)c3)nn21 [Compound 49] ?
Result: condition met

Query: Is Emax at 30 µM of CN(Cc1cc2n(n1)CCN(c1ccc(F)cc1)C2=O)c1ccc(C#N)cc1 [Compound 93] strictly below 80%?
Result: condition met

Query: Item CN(Cc1cc2n(n1)CCN(c1ccc(F)cc1)C2=O)c1ccc(Cl)cc1 [Compound 90] : Emax at 30 µM beneath 80%, strictly?
Result: condition not met

Query: Field: below-cutoff. Rule: recorded Emax at 30 µM strictly less than 80%. Subject: C[C@@H]1CN(c2ccc(F)cc2)C(=O)c2cc(CNc3ccc(Cl)cc3)nn21 [Compound 60]
Result: condition met

Query: Problem: For the compound C[C@H]1CN(c2ccc(F)cc2)C(=O)c2cc(CNc3ccc(F)cc3)nn21 [Compound 57] , is Emax at 30 µM under 80%?
Result: condition met

Query: Hello, I'm reviewing records and need to know if Emax at 30 µM of CN(Cc1cc2n(n1)CCN(c1ccc(F)cc1)C2=O)c1cccc(F)c1 [Compound 86] is below 80%. Could you check?
Result: condition not met

====

# Tested on: rat mGlu5 (Rattus norvegicus (Rat), UniProt P31424)
# Test: mGlu5 Ca2+ flux assay
# Assay type: cell-based
# Test conditions: PAM; amplitude of response at 30 μM test compound as % of maximal response to glutamate; read-out: rat mGlu5 Glu max (%)
Think of 80% as a floor: if Emax at 30 µM stands on it or above, it is rule met; beneath it, rule not met.

Recorded results for 5 molecules are shown here.
Structure smiles string: C[C@@H]1CN(c2ccc(F)cc2)C(=O)c2cc(CNc3cccc(F)c3F)nn21
Tested on: rat mGlu5 (Rattus norvegicus (Rat), UniProt P31424)
Answer label: rule not met
//
Structure smiles string: Cc1ccccc1NCc1cc2n(n1)CCN(c1ccc(F)cc1)C2=O
Tested on: rat mGlu5 (Rattus norvegicus (Rat), UniProt P31424)
Answer label: rule not met
//
Structure smiles string: C[C@@H]1CN(c2ccc(F)cc2)C(=O)c2cc(CNc3ccccc3)nn21
Tested on: rat mGlu5 (Rattus norvegicus (Rat), UniProt P31424)
Answer label: rule not met
//
Structure smiles string: C[C@H]1CN(c2ccc(F)cc2)C(=O)c2cc(CNc3c(F)cc(F)cc3F)nn21
Tested on: rat mGlu5 (Rattus norvegicus (Rat), UniProt P31424)
Answer label: rule met
//
Structure smiles string: C[C@H]1CN(c2ccc(F)cc2)C(=O)c2cc(CNc3cccc(F)c3F)nn21
Tested on: rat mGlu5 (Rattus norvegicus (Rat), UniProt P31424)
Answer label: rule met

Query: Quick check, Emax at 30 µM >= 80%? `C[C@@H]1CN(c2ccc(F)cc2)C(=O)c2cc(CNc3ccc(F)cc3F)nn21`
Result: rule met

Query: # bool: Emax at 30 µM of `C[C@H]1CN(c2ccc(F)cc2)C(=O)c2cc(CNc3ccc(F)cc3F)nn21` >= 80%
Result: rule met

Query: Hi, just wondering whether `C[C@@H]1CN(c2ccc(F)cc2)C(=O)c2cc(CNc3cccc(Cl)c3)nn21` shows Emax at 30 µM of 80% or higher.
Result: rule met

Query: Does Emax at 30 µM meet or surpass 80% for `O=C1c2cc(CNc3cccc(F)c3)nn2CCN1c1ccc(F)cc1` ?
Result: rule met

Query: Does Emax at 30 µM meet or surpass 80% for `O=C1c2cc(CNc3cccc(Cl)c3)nn2CCN1c1ccc(F)cc1` ?
Result: rule met

Query: # check: Emax at 30 µM of `Cc1ccc(NCc2cc3n(n2)[C@@H](C)CN(c2ccc(F)cc2)C3=O)cc1` is greater than or equal to 80%
Result: rule not met

====

Each record here notes measured IC50.
# Tested on: rat mGlu3 (Rattus norvegicus (Rat))
# Test: mGlu3 Ca2+ flux assay
# Format: cell-based
# Test conditions: NAM potency, decrease of glutamate EC80 response; >30,000 = no measurable activity; >10,000 = no plateau; read-out: rat mGlu3 IC50
Report the value in nM with no unit label.

Completed entries (count: 6):
Compound: O=C1c2cc(CNc3ccc(F)cc3F)nn2CCN1c1ccc(F)cc1 [Compound 28]
Unit text: nM
IC50: 1250
--
Compound: COc1ccc(N(C)Cc2cc3n(n2)CCN(c2ccc(OC(F)F)cc2)C3=O)cc1 [Compound 123]
Unit text: nM
IC50: 1030
--
Compound: O=C1c2cc(CNc3ccc(OC(F)F)cc3F)nn2CCN1c1cccc(F)c1 [Compound 95]
Unit text: nM
IC50: 588
--
Compound: COc1ccc(N(C)Cc2cc3n(n2)CCN(c2cccc(C)c2)C3=O)cc1 [Compound 103]
Unit text: nM
IC50: 805
--
Compound: COc1ccccc1N(C)Cc1cc2n(n1)CCN(c1ccc(F)cc1)C2=O [Compound 85]
Unit text: nM
IC50: 9480
--
Compound: CN(Cc1cc2n(n1)CCN(c1ccc(F)cc1)C2=O)c1ccc(C#N)cc1 [Compound 93]
Unit text: nM
IC50: 1130

Query: I would be grateful if you could share the reported IC50 for COc1ccc(N(C)Cc2cc3n(n2)CCN(c2cccc(C#N)c2)C3=O)cc1 [Compound 116] .
Result: 2210

Query: // lookup IC50 for CN(Cc1cc2n(n1)CCN(c1ccc(F)cc1)C2=O)c1ccc(F)cc1 [Compound 89]
Result: 467

====

# Tested on: rat mGlu5 (Rattus norvegicus (Rat), UniProt P31424)
# Test: mGlu5 Ca2+ flux assay
# Assay type: cell-based
# Test conditions: read-out: rat mGlu5 EC50 or IC50
Quick list: EC50 per entry.

Example entries and their recorded answers appear below.
Compound: COc1ccc(NC(C)c2cc3n(n2)CCN(c2ccc(F)cc2)C3=O)cc1 (stereo not shown)
Tested on: rat mGlu5 (Rattus norvegicus (Rat), UniProt P31424)
Reported: > 30 µM

Compound: COc1cccc(NCc2cc3n(n2)[C@@H](C)CN(c2ccc(F)cc2)C3=O)c1
Tested on: rat mGlu5 (Rattus norvegicus (Rat), UniProt P31424)
Reported: > 30 µM

Compound: COc1ccc(N(C)Cc2cc3n(n2)CCN(c2ccc(OC)cc2)C3=O)cc1
Tested on: rat mGlu5 (Rattus norvegicus (Rat), UniProt P31424)
Reported: > 30 µM

Query: Param item = `O=C1c2cc(CNc3ccc(OC(F)F)cc3F)nn2CCN1c1ccc(F)cn1` ; retrieve measured EC50.
Result: > 30 µM

Query: I am curious: what EC50 value has been reported for `O=C1c2cc(CNc3ccc(F)c(F)c3)nn2CCN1c1ccc(F)cc1` ?
Result: 2.48 µM

====

# Tested on: rat mGlu3 (Rattus norvegicus (Rat))
# Test: mGlu3 Ca2+ flux assay
# Type: cell-based
# Test conditions: amplitude of response at 30 μM test compound as % of maximal response to glutamate; read-out: rat mGlu3 Glu max (%)
Each entry below lists one item and its recorded remaining activity at 30 µM value.
Just the number in %, nothing appended.

Would you please look over these solved cases?
Structure smiles string: COc1ccc(N(C)Cc2cc3n(n2)CCN(c2ccc(F)cc2Cl)C3=O)cc1
Tested on: rat mGlu3 (Rattus norvegicus (Rat))
remaining activity at 30 µM (%): 2.05
--
Structure smiles string: COc1cccc(NCc2cc3n(n2)CCN(c2ccc(F)cc2)C3=O)c1
Tested on: rat mGlu3 (Rattus norvegicus (Rat))
remaining activity at 30 µM (%): 2.01
--
Structure smiles string: COc1ccccc1NCc1cc2n(n1)CCN(c1ccc(F)cc1)C2=O
Tested on: rat mGlu3 (Rattus norvegicus (Rat))
remaining activity at 30 µM (%): 0.98

// next item, remaining activity at 30 µM requested
Query: Consider the compound shown here: `CN(Cc1cc2n(n1)CCN(c1ccc(F)cc1)C2=O)c1ccccc1` What is its recorded remaining activity at 30 µM?
Result: 1.01

====

# Tested on: rat mGlu3 (Rattus norvegicus (Rat), UniProt P31422)
# Sequence (P31422 23-879): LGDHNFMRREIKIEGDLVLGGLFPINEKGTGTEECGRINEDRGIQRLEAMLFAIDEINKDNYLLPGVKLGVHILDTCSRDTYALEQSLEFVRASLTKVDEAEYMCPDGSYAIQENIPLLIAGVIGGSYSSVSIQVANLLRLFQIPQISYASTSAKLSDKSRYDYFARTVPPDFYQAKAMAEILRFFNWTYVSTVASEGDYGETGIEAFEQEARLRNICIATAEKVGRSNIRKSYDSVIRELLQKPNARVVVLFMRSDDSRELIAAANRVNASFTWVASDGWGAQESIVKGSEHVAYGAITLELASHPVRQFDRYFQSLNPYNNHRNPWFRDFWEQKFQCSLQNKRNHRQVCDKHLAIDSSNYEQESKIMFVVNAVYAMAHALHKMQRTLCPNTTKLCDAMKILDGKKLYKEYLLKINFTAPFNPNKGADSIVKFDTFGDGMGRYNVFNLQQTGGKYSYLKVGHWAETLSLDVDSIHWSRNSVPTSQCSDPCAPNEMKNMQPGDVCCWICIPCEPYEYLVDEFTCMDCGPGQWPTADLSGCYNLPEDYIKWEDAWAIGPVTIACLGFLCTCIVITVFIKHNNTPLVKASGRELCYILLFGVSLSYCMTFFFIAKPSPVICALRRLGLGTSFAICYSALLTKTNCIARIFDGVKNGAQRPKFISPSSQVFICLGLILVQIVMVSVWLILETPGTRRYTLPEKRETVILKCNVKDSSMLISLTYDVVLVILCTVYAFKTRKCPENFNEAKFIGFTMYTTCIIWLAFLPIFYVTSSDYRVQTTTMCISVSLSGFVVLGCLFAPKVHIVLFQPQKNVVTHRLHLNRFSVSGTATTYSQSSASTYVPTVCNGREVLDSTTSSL
# Test: mGlu3 Ca2+ flux assay
# Assay type: cell-based
# Test conditions: NAM potency, decrease of glutamate EC80 response; >30,000 = no measurable activity; >10,000 = no plateau; read-out: rat mGlu3 IC50
Quantity: pIC50
Just so you know, pIC50 here is -log10 of the concentration in molar units; reply with that number alone.

Structure smiles string: COc1ccc(N(C)Cc2cc3n(n2)CCN(c2ccc(OC)cc2)C3=O)cc1
Quantity: pIC50
Reported: 5.86

Query: Test system rat mGlu3 (Rattus norvegicus (Rat), UniProt P31422); read-out pIC50; what value for `COc1ccc(N(C)Cc2cc3n(n2)CCN(c2ccccc2OC)C3=O)cc1` ?
Result: 5.48

Query: Find pIC50 (rat mGlu3 (Rattus norvegicus (Rat), UniProt P31422)) for the entry `Cc1cccc(NCc2cc3n(n2)[C@@H](C)CN(c2ccc(F)cc2)C3=O)c1`
Result: 5.52

Query: Entry `COc1ccc(N(C)Cc2cc3n(n2)CCN(c2ccccn2)C3=O)cc1` , system rat mGlu3 (Rattus norvegicus (Rat), UniProt P31422): what pIC50 was measured?
Result: 5.56

Query: rat mGlu3 (Rattus norvegicus (Rat), UniProt P31422) / pIC50 / `C[C@@H]1CN(c2ccc(F)cc2)C(=O)c2cc(CNc3ccc(OC(F)F)cc3)nn21` : value?
Result: 5.87

Query: # value lookup — system rat mGlu3 (Rattus norvegicus (Rat), UniProt P31422), readout pIC50, item `O=C1c2cc(CNc3ccc(OC(F)F)cc3F)nn2CCN1c1cc(Cl)ccn1`
Result: 5.75

Origin of measurements: patent US9676782B2
